// data source = PubChem BioAssay

METHOD NOTES: blockers of DNA damage checkpoint Chk1 activation – imaging, HeLa, hydroxyurea, phospho-Chk1 nuclear intensity, primary screen (AID 1187); also: test concentration not given here
STATED CONDITIONS: hydroxyurea-induced phospho-Chk1 immunofluorescence imaging, higher = more signal
Reported z-score values follow for various compounds

| COMPOUND STRUCTURE | z-score |
| --- | --- |
| COCCOC(=O)N1C(=O)[C@@]2(c3cc(C#CCNC(N)=O)ccc31)[C@H](C(N)=O)[C@H]1C(=O)O[C@H](c3ccccc3)[C@H](c3ccccc3)N1[C@@H]2c1ccccc1OCCO | 0.588 |
| COCC(=C=CC[C@H](O)c1ccccc1OCCO)C[C@H](O)c1ccccn1 | -1.6 |
| CCOC(=O)C1=CC[C@@H](c2ccccc2)N(S(=O)(=O)c2ccc(C)cc2)[C@H]1c1ccccc1 | -1.24 |
| COc1ccc([Si](C)(C)[C@H]2[C@H](CC(=O)N(CCO)Cc3ccccc3)O[C@@]3(C(=O)N(C)c4c(Br)cc(C)cc43)[C@@H]2C)cc1 | -1.22 |
